Molecular target: T1, amino acid residues 26-148 of human ANGPTL4 fused in-line to mouse IgG2a (hANGPTL4-mFc) (human)
T1 construct: contains the N-terminal coiled-coil region
T1 chain: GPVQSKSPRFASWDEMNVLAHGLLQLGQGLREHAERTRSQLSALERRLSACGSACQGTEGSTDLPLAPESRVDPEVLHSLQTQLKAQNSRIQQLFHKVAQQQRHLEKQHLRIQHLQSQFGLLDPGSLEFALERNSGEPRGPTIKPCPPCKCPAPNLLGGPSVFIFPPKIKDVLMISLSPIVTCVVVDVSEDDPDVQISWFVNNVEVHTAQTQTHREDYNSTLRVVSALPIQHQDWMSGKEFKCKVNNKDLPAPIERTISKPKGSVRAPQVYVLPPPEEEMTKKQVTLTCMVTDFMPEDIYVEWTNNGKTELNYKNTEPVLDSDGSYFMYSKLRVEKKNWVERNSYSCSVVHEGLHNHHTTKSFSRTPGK
Test: SPR (Biacore), 25° C., pH 5.75, antigen captured by anti-mFc
Experimental readout: t1/2 (min)

{"columns": ["Binder", "Measured number"],
 "data": [
  ["H1H268P (antibody, V domains shown, also called entire H1H268 mAb; Full mAb) VH: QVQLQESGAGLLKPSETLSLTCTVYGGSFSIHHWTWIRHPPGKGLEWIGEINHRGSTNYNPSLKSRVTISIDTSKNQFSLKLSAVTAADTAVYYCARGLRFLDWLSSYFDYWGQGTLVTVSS VL: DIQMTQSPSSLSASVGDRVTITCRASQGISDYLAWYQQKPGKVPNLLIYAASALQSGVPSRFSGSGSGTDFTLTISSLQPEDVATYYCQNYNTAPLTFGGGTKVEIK", 84],
  ["H1H284P (antibody, V domains shown, also called entire H1H284 mAb; Full mAb) VH: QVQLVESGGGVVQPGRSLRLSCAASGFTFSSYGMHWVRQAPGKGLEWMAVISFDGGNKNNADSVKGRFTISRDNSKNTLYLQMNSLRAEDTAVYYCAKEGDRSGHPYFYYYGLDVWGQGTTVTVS VL: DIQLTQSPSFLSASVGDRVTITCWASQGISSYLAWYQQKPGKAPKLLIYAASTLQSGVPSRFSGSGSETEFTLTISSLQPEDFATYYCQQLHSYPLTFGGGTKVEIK", 130],
  ["H1H284P Fab fragment (Fab, V domains shown, Fab made by papain digestion of H1H284P (IgG1); also called H1H284 Fab) VH: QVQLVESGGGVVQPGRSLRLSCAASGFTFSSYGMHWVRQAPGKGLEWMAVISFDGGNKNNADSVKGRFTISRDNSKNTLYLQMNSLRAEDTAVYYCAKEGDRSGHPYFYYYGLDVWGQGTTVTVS VL: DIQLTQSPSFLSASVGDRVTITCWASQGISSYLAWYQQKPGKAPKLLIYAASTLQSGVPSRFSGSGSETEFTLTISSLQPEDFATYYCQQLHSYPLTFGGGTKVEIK", 7],
  ["H1H268P Fab fragment (Fab, V domains shown, Fab made by papain digestion of H1H268P (IgG1); also called H1H268 Fab) VH: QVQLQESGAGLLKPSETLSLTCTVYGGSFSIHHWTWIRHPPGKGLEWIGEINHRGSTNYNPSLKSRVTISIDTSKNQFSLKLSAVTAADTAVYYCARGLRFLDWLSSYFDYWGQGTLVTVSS VL: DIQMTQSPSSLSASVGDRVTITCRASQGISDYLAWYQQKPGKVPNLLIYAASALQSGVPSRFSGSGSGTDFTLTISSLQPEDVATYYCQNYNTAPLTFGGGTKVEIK", 4]
]}
